Target: T1, recombinant APP N-terminal (18-612) fragment (UniProt P05067-4 18-612)
T1 construct: also called APP18-612; N-terminal APP; source: expressed by KMD Bioscience
T1 sequence (P05067 other isoform, or with tags, fused parts or gaps): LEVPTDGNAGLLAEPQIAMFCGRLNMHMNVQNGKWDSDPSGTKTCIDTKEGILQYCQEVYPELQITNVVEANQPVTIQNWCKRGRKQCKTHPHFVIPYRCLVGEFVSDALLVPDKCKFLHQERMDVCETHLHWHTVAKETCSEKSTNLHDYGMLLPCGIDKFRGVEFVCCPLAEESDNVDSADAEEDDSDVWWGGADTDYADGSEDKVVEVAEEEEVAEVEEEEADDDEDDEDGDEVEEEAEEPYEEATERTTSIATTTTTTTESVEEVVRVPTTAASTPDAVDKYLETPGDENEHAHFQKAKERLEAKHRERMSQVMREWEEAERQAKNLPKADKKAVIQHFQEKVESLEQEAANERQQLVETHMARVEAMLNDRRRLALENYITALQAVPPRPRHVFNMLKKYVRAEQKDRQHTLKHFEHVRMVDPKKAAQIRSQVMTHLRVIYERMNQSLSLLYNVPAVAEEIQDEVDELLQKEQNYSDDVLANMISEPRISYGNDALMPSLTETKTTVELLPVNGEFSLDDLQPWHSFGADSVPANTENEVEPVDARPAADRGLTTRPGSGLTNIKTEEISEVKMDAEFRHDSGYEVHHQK
Assay: SPR
Settings: both partners purified
No end group written: not given here. *: point of attachment. Palmitoyl = CCCCCCCCCCCCCCCC(=O)*
attribute measured: pKd
Friendly reminder that pKd comes from taking -log10 of the concentration in mol/L.

Req: I have this binder here, KKKKKKLKVRLASHLRK(Palmitoyl)ELRKRLLRDA (not fully specified) [AY51 peptide] , and I need its recorded pKd.
Resp: 6.26
